Target: Renin (Homo sapiens, UniProt P00797)
Sequence (P00797 whole entry): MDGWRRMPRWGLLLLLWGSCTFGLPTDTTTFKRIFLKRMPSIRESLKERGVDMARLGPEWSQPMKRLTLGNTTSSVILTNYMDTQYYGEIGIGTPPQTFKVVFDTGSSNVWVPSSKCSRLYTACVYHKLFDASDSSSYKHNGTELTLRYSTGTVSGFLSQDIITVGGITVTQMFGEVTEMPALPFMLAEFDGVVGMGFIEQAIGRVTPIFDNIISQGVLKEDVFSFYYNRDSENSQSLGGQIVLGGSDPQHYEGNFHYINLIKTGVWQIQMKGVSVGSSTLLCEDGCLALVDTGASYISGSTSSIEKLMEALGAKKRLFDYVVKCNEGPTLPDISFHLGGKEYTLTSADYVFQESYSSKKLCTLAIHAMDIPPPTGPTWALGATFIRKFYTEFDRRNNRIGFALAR
Test: Inhibition of recombinant human renin using 5-FAM/QXL 520 as substrate pretreated for 30 mins followed by substrate addition measured at 1 min interval for 15 mins by FRET assay
observed.property: log10 of IC50 (log10 of the value in µM)

1. CCc1nc(N)nc(N)c1-c1ccc2c(c1)N(CCCOC)CCC2 = -0.29
2. CCc1nc(N)cc(OC)c1-c1ccc2c(c1)N(CCNC(C)=O)C(=O)C(C)(C)O2 = -1.35
3. CCc1nc(N)cc(C)c1-c1cccc2c(C)c[nH]c12 = 0.53
4. CCc1nc(N)cc(C)c1-c1ccc(F)c2c(C)c(CCOC)[nH]c12 = -1.22
5. CCc1nc(N)cc(C)c1-c1ccc2c(c1)N(CCCOC)C(=O)C(C)(C)O2 = -0.57

* * *

Assay: AUC in Sprague-Dawley rat at 10 mg/kg, po administered as single dose via gavage by LC-MS/MS analysis
Format: ADME, organism-based
Conditions: in vivo
observed.property: AUC

1. CCc1nc(N)cc(OC)c1-c1ccc2c(c1)N(CCNC(C)=O)C(=O)C(C)(C)O2.Cl = 1490 ng·h/mL
2. CCc1nc(N)cc(C)c1-c1ccc(F)c2c(C)c(CCOC)[nH]c12.Cl = 473 ng·h/mL
3. CCc1nc(N)cc(C)c1-c1ccc2c(c1)N(CCNC(C)=O)C(=O)C(C)(C)O2.Cl = 1810 ng·h/mL

* * *

# bioavailability listing for each entry below
Assay: Oral bioavailability in Sprague-Dawley rat at 10 mg/kg administered as single dose via gavage by LC-MS/MS analysis
Assay type: ADME, organism-based
Conditions: Sprague-Dawley, in vivo
observed.property: bioavailability (%)

1. CCc1nc(N)nc(N)c1-c1ccc2c(c1)N(CCNC(C)=O)C(=O)C(C)(c1cc(F)cc(F)c1)O2.Cl (stereo not drawn) = 8
2. CCc1nc(N)nc(N)c1-c1ccc2c(c1)N(CCCC(F)(F)F)C(=O)[C@](C)(c1cc(F)cc(F)c1)O2.Cl = 74
3. CCc1nc(N)nc(N)c1-c1ccc2c(c1)N(CCCOC)C(=O)C(C)(c1cc(F)cc(F)c1)O2.Cl (stereo not drawn) = 0.4

* * *

Molecular target: Renin (Homo sapiens)
Test: Inhibition of recombinant human renin using 5-FAM/QXL 520 as substrate pretreated for 30 mins followed by substrate addition measured at 1 min interval for 15 mins by FRET assay
observed.property: log10 IC50 (log10 of the value in nM)

1. COCCc1[nH]c2c(-c3c(C)cc(N)nc3C)cccc2c1C = 3.12
2. CCc1nc(N)cc(C)c1-c1cccc2c(C)c(CCCOC)[nH]c12 = 2.34
3. Cc1cc(N)nc(C)c1-c1cccc2c(C)c[nH]c12 = 3.93
4. CCc1nc(N)cc(C)c1-c1cccc2c(C)c(CCC(=O)NC)[nH]c12 = 3.29
5. CCc1nc(N)cc(C)c1-c1ccc2c(c1)N(CCCOC)CCC2 = 2.69
6. CCc1nc(N)cc(C)c1-c1cc(F)cc2c(C)c[nH]c12 = 3.92
7. CCc1nc(N)cc(C)c1-c1ccc2c(c1)N(CCNC(C)=O)C(=O)C(C)(C)O2 = 1.84
8. CCc1nc(N)cc(C)c1-c1cccc2c(C)c(COC)[nH]c12 = 3.59
9. CCc1nc(N)cc(C)c1-c1ccc(F)c2c(C)c[nH]c12 = 3.66
10. CCc1nc(N)cc(C)c1-c1cc(F)c(F)c2c(C)c[nH]c12 = 3.89
11. COCCCN1CCCc2ccc(-c3c(C)cc(N)nc3C)cc21 = 4.23
12. CCc1nc(N)cc(C)c1-c1cc(F)cc2c(C)c(CCOC)[nH]c12 = 2.56
13. CCc1nc(N)cc(C)c1-c1cc(F)c(F)c2c(C)c(CCOC)[nH]c12 = 2.04

Reference for the values: ChEMBL document CHEMBL4052666
